Target: hNK1 (TACR1) (Homo sapiens, UniProt P25103)
Sequence (P25103 whole entry): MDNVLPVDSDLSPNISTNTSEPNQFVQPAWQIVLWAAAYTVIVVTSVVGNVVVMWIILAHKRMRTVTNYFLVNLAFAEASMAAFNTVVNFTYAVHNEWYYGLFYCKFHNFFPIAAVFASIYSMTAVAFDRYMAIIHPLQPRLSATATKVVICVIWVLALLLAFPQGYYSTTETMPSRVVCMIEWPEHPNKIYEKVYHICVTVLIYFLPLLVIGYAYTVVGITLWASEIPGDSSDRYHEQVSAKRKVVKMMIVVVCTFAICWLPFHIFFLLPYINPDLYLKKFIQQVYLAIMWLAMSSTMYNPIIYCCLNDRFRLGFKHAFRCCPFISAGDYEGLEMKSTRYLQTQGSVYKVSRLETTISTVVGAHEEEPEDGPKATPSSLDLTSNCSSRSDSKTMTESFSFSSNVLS
Experiment: GPCR cell-based functional assay, intracellular Ca2+ level, NK1
Details: positive control; read-out: IC50 of standard antagonist, hNK1
PROPERTY_LABEL: pIC50
pIC50 here is simply -log10 of the concentration when that concentration is written in mol/L.

State the measured pIC50 (hNK1 (TACR1) (Homo sapiens, UniProt P25103)) of FC(F)(F)c1cc(CO[C@H]2CCCN[C@H]2c2ccccc2)cc(C(F)(F)F)c1 [L-733,060, reference compound]
8.80

====

Target: hMAO-A (Homo sapiens, UniProt P21397)
Sequence (P21397 whole entry): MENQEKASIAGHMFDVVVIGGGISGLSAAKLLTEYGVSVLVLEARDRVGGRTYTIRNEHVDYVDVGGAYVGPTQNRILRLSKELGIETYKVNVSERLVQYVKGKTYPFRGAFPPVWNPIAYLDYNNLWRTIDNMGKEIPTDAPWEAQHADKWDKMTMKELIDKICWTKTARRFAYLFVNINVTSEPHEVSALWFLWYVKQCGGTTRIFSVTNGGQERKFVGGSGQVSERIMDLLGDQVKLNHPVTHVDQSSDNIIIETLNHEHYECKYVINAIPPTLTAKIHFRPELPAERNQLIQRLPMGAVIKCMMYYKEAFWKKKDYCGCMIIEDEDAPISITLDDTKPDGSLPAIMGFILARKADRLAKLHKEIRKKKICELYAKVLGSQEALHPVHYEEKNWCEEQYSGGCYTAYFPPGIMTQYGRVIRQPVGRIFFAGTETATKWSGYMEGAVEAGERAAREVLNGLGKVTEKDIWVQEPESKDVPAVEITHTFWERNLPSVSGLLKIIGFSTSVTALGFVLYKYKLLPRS
Assay: hMAO-A inhibition, chemiluminescent MAO-Glo assay and kinetic analysis
Format: biochemical
Conditions: Kiu from secondary plot of 1/Vmaxapp versus concentration
PROPERTY_LABEL: pKi
pKi here is simply -log10 of the concentration when that concentration is written in mol/L.

Output measured pKi for this item: Oc1cc(O)cc(Oc2c(O)cc(O)c3c2Oc2c(O)cc4oc5c(Oc6cc(O)cc(O)c6)c(O)cc(O)c5c4c2O3)c1
5.29
